Target: GSK3b (GST-full length GSK3b) (Homo sapiens (Human), UniProt P49841)
Sequence (P49841 whole entry): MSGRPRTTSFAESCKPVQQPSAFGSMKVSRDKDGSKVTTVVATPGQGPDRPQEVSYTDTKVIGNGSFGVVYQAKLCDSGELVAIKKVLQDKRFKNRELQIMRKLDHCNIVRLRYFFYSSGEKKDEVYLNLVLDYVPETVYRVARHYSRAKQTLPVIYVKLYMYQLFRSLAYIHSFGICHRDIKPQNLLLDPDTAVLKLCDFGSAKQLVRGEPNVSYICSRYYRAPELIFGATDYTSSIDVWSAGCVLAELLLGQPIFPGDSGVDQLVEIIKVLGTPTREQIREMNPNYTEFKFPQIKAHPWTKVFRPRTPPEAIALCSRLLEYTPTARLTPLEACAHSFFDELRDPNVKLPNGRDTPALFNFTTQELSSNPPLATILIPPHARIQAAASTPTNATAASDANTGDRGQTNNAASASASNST
Assay: GSK3b TR-FRET kinase assay
Assay type: biochemical
Conditions: 1 nM GSK3b, 2 μM ATP, 30 minute preincubation; geometric mean; read-out: GSK3-B TR-FRET BIOCHEMICAL (TR-FRET); GMean; IC50
pIC50: −log10 of the molar value.
Readout Type: pIC50

Consider the reported pIC50 for these compounds:
CCC1(c2cccc(-n3ccnc3)c2)C2=C(CC(C)(C)CC2=O)Nc2n[nH]cc21 (stereo not drawn) [Compound 854926] :: 6.00 to 7.00
CCC1(c2cccc(-c3cc(C)ncc3F)c2)C2=C(CC(C)(C)NC2=O)Nc2n[nH]cc21 (stereo not drawn) :: 6.00 to 7.00
CC[C@@]1(c2cccc(-c3ccnc(C)c3)c2)C2=C(C[C@@]3(CCCOC3)NC2=O)Nc2n[nH]cc21 :: < 5.30
CCC1(c2cccc(-c3cn(C)nc3C)c2)C2=C(CC(C)(C)N(C)C2=O)Nc2n[nH]cc21 (stereo not drawn) [Compound 948304] :: ≥ 7.00
CCC1(c2cccc(-c3cnn(C)c3C#N)c2)C2=C(CC(C)(C)NC2=O)Nc2n[nH]cc21 (stereo not drawn) :: 6.00 to 7.00
CC[C@]1(c2ccccc2)C2=C(Nc3n[nH]cc31)[C@H](C)C[C@@H](C)C2=O :: 6.00 to 7.00
CC[C@@]1(c2cccc(-c3ccnc4cc(Cl)c(C)cc34)c2)C2=C(CC(C)(C)NC2=O)Nc2n[nH]cc21 :: < 5.30
CC[C@@]1(c2cccc(-c3ccnn3C)c2)C2=C(CC3(CCCC3)NC2=O)Nc2n[nH]cc21 :: < 5.30
CCC1(c2cccc(-c3cn(C)nc3C)c2)C2=C(CC(C)(C)NC2=O)Nc2n[nH]c(C(F)(F)F)c21 (stereo not drawn) :: ≥ 7.00
CC[C@]1(c2cccc(-c3ccnc4c3CCC4)c2)C2=C(CC(C)(C)NC2=O)Nc2n[nH]c(C(F)(F)F)c21 :: 6.00 to 7.00

Provide the reported pIC50 of each entry below, same order.
1. CCC1(c2cccc(C(F)F)c2)C2=C(CC(C)(C)CC2=O)Nc2n[nH]cc21 (stereo not drawn) [Compound 819564]
2. CCC1(c2ccccc2)C2=C(CC(C)(C(F)(F)F)CC2=O)Nc2n[nH]cc21 (stereo not drawn)
3. CCC1(c2cccc(N(C)c3ccccn3)c2)C2=C(CC(C)(C)CC2=O)Nc2n[nH]cc21 (stereo not drawn)
4. CCC1(c2cccc(C(C)C)c2)C2=C(CC(C)(C)NC2=O)Nc2n[nH]c(C)c21 (stereo not drawn)
5. C[C@H]1CC(=O)C2=C(C1)Nc1n[nH]cc1[C@]2(C)c1ccccc1

Result:
["≥ 7.00", "5.30 to 6.00", "6.00 to 7.00", "≥ 7.00", "6.00 to 7.00"]

====

Target: GSK3b (GST-full length GSK3b) (Homo sapiens (Human), UniProt P49841)
Experiment: GSK3b TR-FRET kinase assay
Type: biochemical
Conditions: 1 nM GSK3b, 2 μM ATP, 30 minute preincubation, Table 16; read-out: GSK3-B TR-FRET BIOCHEMICAL (TR-FRET); IC50
pIC50: −log10 of the molar value.
Readout Type: pIC50

Provide the reported pIC50 of each entry below, same order.
1. CCC1(c2cccc(N3CCc4ccncc43)c2)C2=C(CC(C)(C)CC2=O)Nc2n[nH]cc21 (stereo not drawn) [Compound 912004]
2. CC[C@@]1(c2cccc(-c3cc(C)ncc3F)c2)C2=C(CC(C)(C)NC2=O)Nc2n[nH]c(C(F)(F)F)c21 [Compound 949650]

Result:
1: < 5.30; 2: ≥ 7.00

Provide the reported pIC50 of each entry below, same order.
1. CC[C@]1(c2cccc(-c3cnn(Cc4cccc(C(F)(F)F)c4)c3)c2)C2=C(CC(C)(C)NC2=O)Nc2n[nH]cc21 [Compound 951848]
2. CC[C@]1(c2cccc(C(F)(F)F)c2)C2=C(CCN(c3cn(C)c(C)n3)C2=O)Nc2n[nH]cc21 [Compound 952479]
3. CC[C@]1(c2cccc(N(C)c3ncccn3)c2)C2=C(CC(C)(C)NC2=O)Nc2n[nH]c(C(F)F)c21 [Compound 951736]

Result:
["6.00 to 7.00", "< 5.30", "6.00 to 7.00"]

Provide the reported pIC50 of each entry below, same order.
1. CCC1(c2cccc(N3CCCCC3C)c2)C2=C(CC(C)(C)CC2=O)Nc2n[nH]cc21 (mixture of isomers) [Compound 885217]
2. CCC1(c2cccc(Oc3ncccn3)c2)C2=C(CC(C)(C)CC2=O)Nc2n[nH]c(C(F)(F)F)c21 (stereo not drawn) [Compound 951604]
3. CC[C@]1(c2cccc(-c3ccnc(C)c3)c2)C2=C(CC(C)(C)NC2=O)Nc2n[nH]c(Cl)c21 [Compound 949421]
4. CC[C@]1(c2cccc(Oc3ncccn3)c2)C2=C(CC(C)(C)NC2=O)Nc2n[nH]c(C(F)(F)F)c21 [Compound 951607]
5. CC[C@@]1(c2cccc(-c3c(C)nn(C)c3C)c2)C2=C(CC(C)(C)CC2=O)Nc2n[nH]cc21 [Compound 911990]
6. CC[C@@]1(c2cccc(-c3cn(C)nc3C)c2)C2=C(CC(C)(C)C2=O)Nc2n[nH]cc21 [Compound 951710]
7. Cc1[nH]nc2c1C1(CCCCC1)C1=C(CC(C)(C)CC1=O)N2 [Compound 877288]

Result:
1. 6.00 to 7.00
2. 6.00 to 7.00
3. < 5.30
4. ≥ 7.00
5. ≥ 7.00
6. < 5.30
7. < 5.30

====

Target: GSK3α (GST-full length GSK3α) (Homo sapiens (Human), UniProt P49840)
Sequence (P49840 whole entry): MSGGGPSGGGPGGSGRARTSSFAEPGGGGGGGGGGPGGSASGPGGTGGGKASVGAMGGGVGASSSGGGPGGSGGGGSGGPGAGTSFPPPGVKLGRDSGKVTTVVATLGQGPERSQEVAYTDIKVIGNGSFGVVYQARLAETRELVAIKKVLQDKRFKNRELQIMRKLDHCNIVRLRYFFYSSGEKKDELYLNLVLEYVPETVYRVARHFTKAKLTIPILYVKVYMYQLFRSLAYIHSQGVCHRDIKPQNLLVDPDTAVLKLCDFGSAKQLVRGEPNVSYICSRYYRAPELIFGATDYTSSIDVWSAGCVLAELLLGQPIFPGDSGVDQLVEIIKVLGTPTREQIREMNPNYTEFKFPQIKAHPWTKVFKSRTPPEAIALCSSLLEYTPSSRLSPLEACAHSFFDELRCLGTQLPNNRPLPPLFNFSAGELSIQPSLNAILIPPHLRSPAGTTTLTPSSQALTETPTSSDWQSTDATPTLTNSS
Assay: GSK3α TR-FRET kinase assay
Type: biochemical
Conditions: 1 nM GSK3α, 4 μM ATP, 30 minute preincubation; geometric mean; read-out: GSK3-A TR-FRET BIOCHEMICAL (TR-FRET); GMean; IC50
Experimental: TR-FRET Assay: The assay was performed in a white, 384 well, low volume, flat bottom plate (Grenier). After a 30 minute preincubation in assay buffer with the indicated concentration of compound, the kinase activity was initiated by the addition of the substrates. […] After 60 min at room temperature the plate was read on Envision plate reader using Ex: 340 nm, Em: 615 nm and […]. The normalized 665/615 Signal ratio versus log compound concentration was analyzed by XLFIT to yield IC50 values.
pIC50: −log10 of the molar value.
For each of the compounds below, state its pIC50.

Consider the reported pIC50 for these compounds:
CCC1(c2ccccc2)C2=C(CC(C)(C)CC2=O)Nc2n[nH]c(Br)c21 (stereo not shown) :: ≥ 7.00
CCC1(c2cccc(Br)c2)C2=C(CC(C)(C)C(F)C2=O)Nc2n[nH]cc21 (mixture of isomers) [Compound 826764] :: ≥ 7.00
CC[C@]1(c2cccc(-c3c(F)cncc3Cl)c2)C2=C(CC(C)(C)NC2=O)Nc2n[nH]cc21 :: ≥ 7.00

Provide the reported pIC50 of each entry below, same order.
1. CC[C@@]1(c2cccc(-c3ccncc3OC3CC3)c2)C2=C(CC(C)(C)NC2=O)Nc2n[nH]cc21
2. CCC1(c2cccc(-c3ccnc(C)c3)c2)C2=C(CC3(CCOCC3)NC2=O)Nc2n[nH]cc21 (stereo not shown)
3. CCC1(c2cccc(-c3cn(C)nc3C)c2)C2=C(CC(C)(C)NC2=O)Nc2n[nH]c(C(F)F)c21 (stereo not shown)
4. CCC1(c2cccc(C(F)(F)F)c2)C2=C(CC(C)(C)CC2=O)Nc2n[nH]c(Br)c21 (stereo not shown) [Compound 810466]

Result:
1: < 5.30; 2: 5.30 to 6.00; 3: ≥ 7.00; 4: ≥ 7.00

====

Target: GSK3α (GST-full length GSK3α) (Homo sapiens (Human), UniProt P49840)
Assay: GSK3α TR-FRET kinase assay
Assay type: biochemical
Conditions: 1 nM GSK3α, 4 μM ATP, 30 minute preincubation, Table 16; read-out: GSK3-A TR-FRET BIOCHEMICAL (TR-FRET)
For each of the molecules below, state its IC50.

CCC1(c2cccc(-c3cnn(C)c3)c2)C2=C(Nc3n[nH]cc31)C(F)C(C)(C)CC2=O (stereo not drawn) [Compound 957510] :: 1 to 5 µM
CC1(C)CC(=O)C2=C(C1)Nc1n[nH]cc1C21CN(CC(F)(F)F)C1 :: ≤ 0.1 µM
CC1(C)CC(=O)C2=C(C1)Nc1n[nH]cc1C21CCCN(S(=O)(=O)c2ccccc2)CC1 (stereo not drawn) :: ≤ 0.1 µM
CC1(C)CC(=O)C2=C(C1)Nc1n[nH]cc1C21CN(c2ccc(C(F)(F)F)cc2)C1 :: 0.1 to 1 µM
CC1(C)CC(=O)C2=C(C1)Nc1n[nH]cc1C21CCN(S(=O)(=O)c2ccc3c(c2)OCCO3)CC1 :: ≤ 0.1 µM
COC[C@H]1C[C@]2(C1)C1=C(CC(C)(C)CC1=O)Nc1n[nH]cc12 :: 0.1 to 1 µM
CC1(C)CC(=O)C2=C(C1)Nc1n[nH]cc1C21CCCCC1 :: ≤ 0.1 µM
CC[C@]1(c2cccc(-c3ccnn3C)c2)C2=C(Nc3n[nH]cc31)[C@H](F)C(C)(C)CC2=O :: > 5 µM
CCC1(c2cccc(-c3ccnn3C)c2)C2=C(CC(C)(C)CC2=O)Nc2n[nH]c(C(F)(F)F)c21 (stereo not drawn) [Compound 945531] :: ≤ 0.1 µM
C[C@@H]1C[C@]2(CCN1S(C)(=O)=O)C1=C(CC(C)(C)CC1=O)Nc1n[nH]cc12 :: 0.1 to 1 µM

Provide the reported IC50 of each entry below, same order.
1. CC1(C)CC(=O)C2=C(C1)Nc1n[nH]cc1[C@]21CCO[C@@H](C(F)(F)F)C1
2. CC1(C)CC(=O)C2=C(C1)Nc1n[nH]cc1C21CCCS(=O)(=O)CC1 (stereo not drawn)
3. CCC1(c2cccc(-c3cc(C)ncc3OC)c2)C2=C(CC(C)(C)CC2=O)Nc2n[nH]cc21 (stereo not drawn)
4. CCC1(c2cccc(-c3ncnn3C)c2)C2=C(CC(C)(C)CC2=O)Nc2n[nH]cc21 (stereo not drawn)
5. CCC1(c2cccc(-c3nc(C)ncc3C)c2)C2=C(CC(C)(C)CC2=O)Nc2n[nH]cc21 (stereo not drawn)

Result:
0.1 to 1 µM
≤ 0.1 µM
≤ 0.1 µM
≤ 0.1 µM
≤ 0.1 µM
